Listed here: items and their measured kon.
- Subject of test: T1, human TSLP (human, UniProt Q969D9 29-159)
- T1 construct: also called hTSLP; rhTSLP
- Procedure details: SPR

Binder: BDG38.126 (antibody, V domains shown, IgG1) VH: QMQLVESGGGVVQPGRSLRLSCAASGFEFRTYGMHWVRQAPGKGLEWVGVIWDDGSNTHYADSVKGRFTITRDNSKNTLNLQMNSLRAEDTAVYYCVRAPQWYLTAEAFDLWGQGTMVTVSS VL: SYILTQPPSVSVAPGQTARITCGGNLIGAKLVHWYQQKPGQAPVLVIYDDSDRPSRIPERFSGSNIGNTATLTIERVEEGDEADYYCQVWDYSSDHMVFGGGTKLTVL
kon (M⁻¹ s⁻¹): 3.87e+06
--
Binder: BDG38.118 (antibody, V domains shown, IgG1) VH: QMQLVESGGGVVQPGRSLRLSCAASGFEFRTYGMHWVRQAPGKGLEWVGVIWYDGSATHYADSVKGRFTITRDNSKNTLNLQMNSLRVEDTAVYYCVRAPQWYLTAEAFDLWGQGTMVTVSS VL: SYILTQPPSVSVAPGETATITCGGNLIGARLVHWYQQKPGQAPVLVIYDDSDRPSRIPERFSGSNIGNTATLTISDVEEGDEADYYCQVWDYSSDHYVFGGGTKLTVL
kon (M⁻¹ s⁻¹): 446000
